System: HeLa cells
Test: Seahorse oxygen consumption rate (OCR) in HeLa cells
Assay type: cell-based
Details: Homo sapiens, 1 h incubation at 37° C.
propertyLabel: IC50

# return recorded IC50 for input CC(O)c1ccc(CCOc2ccc(CC3SC(=O)NC3=O)cc2)nc1.Cl (stereo not shown) [Compound (1) HCl]
~5 µM

###

Experiment: Multiple ascending dose (MAD) study, pharmacokinetics in human subjects
Assay type: in vivo
Settings: in vivo; human subjects, 135 mg, steady state day 8; read-out: mean AUC0-tau ss
propertyLabel: AUC (µg·h/mL)
Give the quantity in µg·h/mL, number only.

Fill in reported AUC for this entry: CC(O)c1ccc(CCOc2ccc(CC3SC(=O)NC3=O)cc2)nc1.Cl (stereo not shown) [Compound (1) HCl]
135
